Target Under Test: human LXRα (Homo sapiens)
Construct: biotin (biotinylated; biotinylation tag not described); made in house; host or cells: E. coli
Method Notes: Ligand-binding test procedure for human LXRα (3H T0901317 competition, flash plates)
Conditions: biotinylated hLXRα, tracer 3H T0901317
Procedure: Ligand-Binding Test Procedure for Human LXRα. Receptor source: E. coli extract from cells expressing biotinylated hLXRα. Extract was made in a similar buffer as above, but with 50 mM TRIS. Washed streptavidin and coated flash plates with wash buffer. Diluted receptor extract to give Bmax ˜4000 cpm and add to the wells. Wrapped the plates in aluminum foil and stored them at +4° C. over night. Made a dilution series in DMSO of the test ligands. […] Measured the remaining radioactivity in the plate.
Listed below: pIC50 values for each entry.
# log scale: pIC50 equals minus log10 of the concentration in mol/L

>  <Compound>
Cc1c(NCc2cccc(-c3c(Cc4ccccc4)cnc4c(C(F)(F)F)cccc34)c2)ccc(C(=O)O)c1C [Example 103]

>  <Outcome Measure>
pIC50

>  <Reported>
5.30

$$$$

Return pIC50 (reported value) for this compound: Cc1cnc2c(C(F)(F)F)cccc2c1-c1cccc(CNc2cc(F)ccc2C(=O)O)c1 [Example 106]
5.14

Supply reported pIC50 belonging to this compound: Cc1cc(NCc2cc(-c3c(Cc4ccccc4)cnc4c(C(F)(F)F)cccc34)cs2)c(C)cc1CC(=O)O [Example 70]
8.15

Give me measured pIC50, please, for this compound: O=C(O)c1cc2ccccc2cc1OCc1cccc(-c2c(Cc3ccccc3)cnc3c(C(F)(F)F)cccc23)c1 [Example 109]
5.44

Give pIC50 for Cc1ccc(C(=O)O)cc1C#Cc1cccc(-c2c(Cc3ccccc3)cnc3c(C(F)(F)F)cccc23)c1 [Example 129]
6.18

Supply reported pIC50 belonging to this compound: Cc1cc(NCc2ccc(-c3c(Cc4ccccc4)cnc4c(C(F)(F)F)cccc34)s2)c(C)cc1CC(=O)O [Example 47]
7.89

Tell us which pIC50 value is on record for Cc1cnc2c(C(F)(F)F)cccc2c1-c1cccc(CNc2cccc(F)c2C(=O)O)c1 [Example 115]
4.97

Note down pIC50 recorded for O=C(O)c1cc(F)ccc1NCc1cccc(-c2c(Cc3ccccc3)cnc3c(C(F)(F)F)cccc23)c1 [Example 112]
6.29

----------
Tested on: ABCA1 gene
Method Notes: Quantitative analysis of ABCA1 gene regulation in THP-1 cells (real-time RT-PCR)
Type: cell-based, human
Conditions: differentiated THP-1 cells, ABCA1 mRNA, 18 hrs; LXR agonist reference at 1.0 uM as positive control
Outcome Measure: THP cells ABCA1 Ag. (%)
All answers are understood in %, so give the number only.

>  <Molecule Smiles>
O=C(O)Cc1cccc2c(NCc3cccc(-c4ccnc5c(C(F)(F)F)cccc45)c3)cccc12

>  <Unit Text>
%

>  <Reported>
91.15

$$$$
>  <Molecule Smiles>
Cc1cnc2c(C(F)(F)F)cccc2c1-c1cccc(COc2cccc3c(CC(=O)O)cccc23)c1

>  <Unit Text>
%

>  <Reported>
122.6

$$$$
>  <Molecule Smiles>
Cc1cnc2c(C(F)(F)F)cccc2c1-c1cccc(CNc2cccc3c(CC(=O)O)cccc23)c1

>  <Unit Text>
%

>  <Reported>
107.8

$$$$
>  <Molecule Smiles>
O=C(O)Cc1cccc2c(OCc3cccc(-c4ccnc5c(C(F)(F)F)cccc45)c3)cccc12

>  <Unit Text>
%

>  <Reported>
69.4

$$$$

Pending compound:
State its THP cells ABCA1 Ag. (%): `O=C(O)Cc1cccc2c(NCc3cncc(-c4c(Cc5ccccc5)cnc5c(C(F)(F)F)cccc45)c3)cccc12`
69.1

----------
Target Under Test: human LXRβ (Homo sapiens)
Construct: biotin (biotinylated; biotinylation tag not described); made in house; host or cells: E. coli
Sequence (P55055 1-460): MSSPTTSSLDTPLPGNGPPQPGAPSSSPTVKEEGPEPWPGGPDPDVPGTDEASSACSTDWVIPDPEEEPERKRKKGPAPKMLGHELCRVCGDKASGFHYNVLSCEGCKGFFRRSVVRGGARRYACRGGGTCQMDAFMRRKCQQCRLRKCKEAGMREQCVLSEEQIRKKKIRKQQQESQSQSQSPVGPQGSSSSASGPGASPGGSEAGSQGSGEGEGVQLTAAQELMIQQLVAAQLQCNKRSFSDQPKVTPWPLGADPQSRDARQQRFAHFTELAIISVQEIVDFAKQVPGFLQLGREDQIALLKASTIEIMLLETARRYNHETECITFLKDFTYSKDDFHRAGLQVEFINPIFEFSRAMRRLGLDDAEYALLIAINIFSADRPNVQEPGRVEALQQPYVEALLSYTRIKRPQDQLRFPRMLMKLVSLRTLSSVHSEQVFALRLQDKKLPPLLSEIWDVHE
Method Notes: Ligand-binding test procedure for human LXRβ (3H T0901317 competition, flash plates)
Conditions: IC50 (μM) LXRα binding/IC50 (μM) LXRβ binding
y if Binding ratio a/b is below 4. n if not; exact matches included in n.

>  <Molecule Smiles>
Cc1cnc2c(C(F)(F)F)cccc2c1-c1cccc(CNc2cc(F)ccc2C(=O)O)c1

>  <Classification>
y

$$$$
>  <Molecule Smiles>
COc1cc(C(=O)O)ccc1OCc1cccc(-c2c(Cc3ccccc3)cnc3c(C(F)(F)F)cccc23)c1

>  <Classification>
n

$$$$
>  <Molecule Smiles>
O=C(O)c1ccc(F)c(OCc2cccc(-c3c(Cc4ccccc4)cnc4c(C(F)(F)F)cccc34)c2)c1

>  <Classification>
y

$$$$
>  <Molecule Smiles>
Cc1cnc2c(C(F)(F)F)cccc2c1-c1cccc(CNc2cccc3c(C(=O)O)cccc23)c1

>  <Classification>
y

$$$$
>  <Molecule Smiles>
O=C(O)c1ccc(COc2cccc(-c3c(Cc4ccccc4)cnc4c(C(F)(F)F)cccc34)c2)cc1

>  <Classification>
y

$$$$
>  <Molecule Smiles>
O=C(O)c1c[nH]c2ccc(NCc3cccc(-c4c(Cc5ccccc5)cnc5c(C(F)(F)F)cccc45)c3)cc12

>  <Classification>
y

$$$$

Dear colleague, could you confirm whether Binding ratio a/b of `O=C(O)c1ccccc1NCc1cccc(-c2c(Cc3ccccc3)cnc3c(C(F)(F)F)cccc23)c1` falls below 4? Thanks.
y

Lab note: confirm whether the reported Binding ratio a/b for this compound is below 4, equality not counting. compound: `Cc1cnc2c(C(F)(F)F)cccc2c1-c1cccc(CNc2ccc(CC(=O)O)c(C)c2C)c1`
n

----------
Target chain: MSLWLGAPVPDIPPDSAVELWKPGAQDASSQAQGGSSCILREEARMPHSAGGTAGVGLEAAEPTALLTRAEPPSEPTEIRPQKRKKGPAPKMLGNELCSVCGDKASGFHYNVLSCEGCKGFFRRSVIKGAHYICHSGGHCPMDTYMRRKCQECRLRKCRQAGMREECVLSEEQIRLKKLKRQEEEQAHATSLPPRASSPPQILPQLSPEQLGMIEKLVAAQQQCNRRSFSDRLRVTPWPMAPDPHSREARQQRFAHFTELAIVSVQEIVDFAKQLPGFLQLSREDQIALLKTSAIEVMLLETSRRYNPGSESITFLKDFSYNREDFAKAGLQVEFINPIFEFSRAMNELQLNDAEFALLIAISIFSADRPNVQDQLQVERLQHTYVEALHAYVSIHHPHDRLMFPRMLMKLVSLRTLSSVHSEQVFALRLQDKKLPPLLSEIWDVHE
# IC50 per entry
Answer format: value, then unit.

>  <Compound>
Cc1ccc(CC(=O)O)cc1OCc1cccc(-c2c(Cc3ccccc3)cnc3c(C(F)(F)F)cccc23)c1 [Example 62]

>  <Outcome Measure>
IC50

>  <Reported>
0.125 µM

$$$$
>  <Compound>
Cc1cnc2c(C(F)(F)F)cccc2c1-c1cccc(CNc2ccc(CC(=O)O)c(C)c2C)c1 [Example 16]

>  <Outcome Measure>
IC50

>  <Reported>
5.19 µM

$$$$

Please give measured IC50 of the following entry: O=C(O)c1ccc(F)c(OCc2cccc(-c3c(Cc4ccccc4)cnc4c(C(F)(F)F)cccc34)c2)c1 [Example 92]
1.28 µM

----------
Protein target, amino acids: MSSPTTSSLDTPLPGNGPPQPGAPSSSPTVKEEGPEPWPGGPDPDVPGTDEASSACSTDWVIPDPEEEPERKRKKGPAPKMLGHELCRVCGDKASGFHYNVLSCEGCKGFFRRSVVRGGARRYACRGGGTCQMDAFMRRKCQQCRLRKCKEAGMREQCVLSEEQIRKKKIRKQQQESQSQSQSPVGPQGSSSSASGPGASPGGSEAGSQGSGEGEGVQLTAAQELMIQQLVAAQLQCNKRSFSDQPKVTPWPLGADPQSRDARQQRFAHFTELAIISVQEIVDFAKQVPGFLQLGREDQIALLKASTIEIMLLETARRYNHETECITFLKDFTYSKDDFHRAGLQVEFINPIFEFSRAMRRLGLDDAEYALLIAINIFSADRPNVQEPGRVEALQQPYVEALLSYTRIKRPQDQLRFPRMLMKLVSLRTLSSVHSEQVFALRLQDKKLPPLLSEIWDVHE
Would you mind sorting the entries by IC50 according to these classes? Low: < 200 nM; Mid: ≥ 200 nM and < 500 nM; High: ≥ 500 nM

Some solved cases for reference:
>  <Compound>
Cn1cc(C(=O)O)c2cccc(NCc3cccc(-c4c(Cc5ccccc5)cnc5c(C(F)(F)F)cccc45)c3)c21

>  <Classification>
Low

$$$$
>  <Compound>
O=C(O)c1cccc2c(NCc3cccc(-c4ccnc5c(C(F)(F)F)cccc45)c3)cccc12

>  <Classification>
High

$$$$
>  <Compound>
O=C(N[C@@H](Cc1c[nH]cn1)C(=O)O)c1cccc(COc2cccc(-c3c(Cc4ccccc4)cnc4c(C(F)(F)F)cccc34)c2)c1

>  <Classification>
Mid

$$$$

Kindly identify the class of `COc1cc(COc2cccc(-c3c(Cc4ccccc4)cnc4c(C(F)(F)F)cccc34)c2)ccc1C(=O)O` .
Low

Which class holds O=C(O)CC1CCCc2c(OCc3cccc(-c4c(Cc5ccccc5)cnc5c(C(F)(F)F)cccc45)c3)cccc21 (stereo not shown) ?
Low

Band for `O=C(O)c1c[nH]c2ccc(NCc3cccc(-c4c(Cc5ccccc5)cnc5c(C(F)(F)F)cccc45)c3)cc12` ?
High

Which category does the recorded IC50 put `O=C(O)c1c[nH]c2c(NCc3cccc(-c4c(Cc5ccccc5)cnc5c(C(F)(F)F)cccc45)c3)cccc12` in?
Mid

Consider `Cc1c(CC(=O)O)ccc(NCc2cncc(-c3c(Cc4ccccc4)cnc4c(C(F)(F)F)cccc34)c2)c1C` . To which IC50 class does it belong?
Low

State the class of the compound shown: `Cc1cc(CC(=O)O)cc(NCc2cccc(-c3c(C)cnc4c(C(F)(F)F)cccc34)c2)c1C`
High

Band for the recorded IC50 of `O=C(O)c1cc(F)cc(Oc2cccc(-c3c(Cc4ccccc4)cnc4c(Cl)cccc34)c2)c1` ?
Mid

Which bin should I file `O=C(O)c1cc(Br)cc(Oc2cccc(-c3c(Cc4ccccc4)cnc4c(Cl)cccc34)c2)c1` under?
High

Assign a bin to `Cc1ccc(NCc2cccc(-c3c(Cc4ccccc4)cnc4c(C(F)(F)F)cccc34)c2)c(C(=O)O)c1`
High

Bin? `Cc1cc(OCc2cncc(-c3c(Cc4ccccc4)cnc4c(C(F)(F)F)cccc34)c2)c(C)cc1CC(=O)O`
Low
